# SUBJECT OF TEST: G12D-mutant human KRAS (amino acid residues 1-188) (Homo sapiens, UniProt P01116, G12D)
# Construct: G12D or G12C-mutant human KRAS (amino acid residues 1-188) with FLAG tag; made in house; host or cells: E. coli
# Sequence (P01116 1-188 isoform P01116-2 G12D): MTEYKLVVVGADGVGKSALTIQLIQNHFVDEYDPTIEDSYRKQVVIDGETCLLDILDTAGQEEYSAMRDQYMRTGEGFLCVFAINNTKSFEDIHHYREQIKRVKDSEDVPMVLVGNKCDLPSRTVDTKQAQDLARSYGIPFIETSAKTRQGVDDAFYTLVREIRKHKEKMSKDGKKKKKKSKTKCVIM
# TEST DETAILS: KRAS Binding Disruption Assay (AlphaScreen; biotinylated KRpep-2d analogue or RAF1-RBD), G12D
# RUN PARAMETERS: KRAS G12D; geometric mean; read-out: KRAS GMean IC50 (uM) MUTATION: G12D
RECORDED METRIC: IC50

Study these solved cases before continuing.
COMPOUND: CNC(=O)CCOc1nc(N2C[C@H]3CC[C@@H](C2)N3)c2ccc(-c3cc(O)cc4ccccc34)c(F)c2n1 [P-0616]
SUBJECT OF TEST: G12D-mutant human KRAS (amino acid residues 1-188) (Homo sapiens, UniProt P01116, G12D)
IC50: 0.0001 to 10 µM

COMPOUND: O=C1CCC(COc2nc(N3C[C@H]4CC[C@@H](C3)N4)c3ccc(-c4cc(O)cc5ccccc45)c(F)c3n2)N1 (stereo partly shown) [P-0802]
SUBJECT OF TEST: G12D-mutant human KRAS (amino acid residues 1-188) (Homo sapiens, UniProt P01116, G12D)
IC50: 0.0001 to 10 µM

COMPOUND: CN1CCc2cccc(Oc3nc(N4C[C@H]5CC[C@@H](C4)N5)c4cc(Cl)c(-c5c(O)cccc5F)c(F)c4n3)c2C1 [P-0331]
SUBJECT OF TEST: G12D-mutant human KRAS (amino acid residues 1-188) (Homo sapiens, UniProt P01116, G12D)
IC50: 0.0001 to 10 µM

COMPOUND: OCC1(CO)CN(c2nc(N3C[C@H]4CC[C@@H](C3)N4)c3ccc(-c4cc(O)cc5ccccc45)c(F)c3n2)C1 [P-0686]
SUBJECT OF TEST: G12D-mutant human KRAS (amino acid residues 1-188) (Homo sapiens, UniProt P01116, G12D)
IC50: 0.0001 to 10 µM

Exam item: # IC50 lookup, item Oc1cc(-c2c(Cl)cc3c(N4C[C@H]5CC[C@@H](C4)N5)nc(OCC45CCCN4CC(F)(F)C5)nc3c2F)c2ccccc2c1 (stereo partly shown) [P-0047]
Marked response: 0.0001 to 10 µM

Exam item: # IC50 lookup, item CN1CCC[C@H]1COc1nc(N2[C@@H]3CC[C@H]2CN(CC(=O)N2CCNCC2)C3)c2ccc(-c3cc(O)cc4ccccc34)cc2n1 [P-0269]
Marked response: 0.0001 to 10 µM

Exam item: # IC50 lookup, item CN1CCC[C@H]1COc1nc(N2[C@@H]3CC[C@H]2CN(c2nccc(N)n2)C3)c2ccc(-c3cc(O)cc4ccccc34)cc2n1 [P-0270]
Marked response: 0.0001 to 10 µM
